# Subject Of Test: Human immunodeficiency virus type 1 protease (Human immunodeficiency virus 1)
# Test Description: Antiviral activity against ritonavir virus (HIV-1 mutated at 46I/63P/71V/82F/84V and resistant to ritonavir)
# Format: functional
Measurement Type: IC90 mutant/IC90 WT
The response must contain the number and no unit.

Sample records with IC90 mutant/IC90 WT:
Exam item: Given the entry Nc1ccc(CN2C(=O)N(Cc3ccc4[nH]ncc4c3)[C@H](Cc3ccccc3)[C@H](O)[C@@H](O)[C@H]2Cc2ccccc2)cc1-n1cccn1 , what IC90 mutant/IC90 WT was observed with Human immunodeficiency virus type 1 protease (Human immunodeficiency virus 1)?
Marked response: 70

Exam item: Given the entry O=C(Nc1nccs1)c1cccc(CN2C(=O)N(Cc3ccc4[nH]ncc4c3)[C@H](Cc3ccccc3)[C@H](O)[C@@H](O)[C@H]2Cc2ccccc2)c1 , what IC90 mutant/IC90 WT was observed with Human immunodeficiency virus type 1 protease (Human immunodeficiency virus 1)?
Marked response: 9

Exam item: Given the entry Nc1ccc(CN2C(=O)N(Cc3ccc4[nH]ncc4c3)[C@H](Cc3ccccc3)[C@H](O)[C@@H](O)[C@H]2Cc2ccccc2)cc1 , what IC90 mutant/IC90 WT was observed with Human immunodeficiency virus type 1 protease (Human immunodeficiency virus 1)?
Marked response: 170

Then there is this compound:
Exam item: Given the entry Nc1cccc(CN2C(=O)N(Cc3ccc4[nH]ncc4c3)[C@H](Cc3ccccc3)[C@H](O)[C@@H](O)[C@H]2Cc2ccccc2)c1 , what IC90 mutant/IC90 WT was observed with Human immunodeficiency virus type 1 protease (Human immunodeficiency virus 1)?
Marked response: 75
